Cited source for all entries: patent US20240368150A1

System: primary human T-cells
pEC50: −log10 of the molar value.
assay endpoint: pEC50

The examples below pair each entry with its known result.
| molecule | study target | pEC50 |
| --- | --- | --- |
| CC(C)Oc1ccc(CN2C(=O)[C@@H](N)CS(=O)(=O)c3cc(F)c(-c4noc(N5CCOC6(CC6)C5)n4)cc32)cn1 | primary human T-cells | 5.82 |
| CC(C)(C)c1nnc(-c2cc3c(cc2F)S(=O)(=O)C[C@H](N)C(=O)N3Cc2ccc(S(C)(=O)=O)cc2)o1 | primary human T-cells | 5.61 |
| CN1CC(c2nnc(-c3ccc4c(c3)N(Cc3ccc(OC(F)(F)F)cc3)C(=O)[C@@H](N)CS4(=O)=O)o2)CC(F)(F)C1 (stereo partly drawn) | primary human T-cells | 5.49 |

(P) NC1CC2(C1)CC(c1nnc(-c3cc4c(cc3F)S(=O)(=O)C[C@H](N)C(=O)N4Cc3ccc(Cl)cc3)o1)C2 (stereo partly drawn)
(Q) COCCN1CC(c2nnc(-c3cc4c(cc3F)S(=O)(=O)C[C@H](N)C(=O)N4Cc3ccc(Cl)cc3)o2)CC(F)(F)C1 (stereo partly drawn)
(R) CCc1ncn(-c2cc3c(cc2F)S(=O)(=O)C[C@H](N)C(=O)N3Cc2ccc(Cl)cc2)n1
(S) N[C@H]1CS(=O)(=O)c2cc(F)c(-c3nnc(C4CCCC(F)(F)C4)o3)cc2N(Cc2ccc(OC(F)(F)F)cc2)C1=O (stereo partly drawn)
(T) N[C@H]1CS(=O)(=O)c2cc(F)c(-c3noc(N4CCNC(C(F)(F)F)C4)n3)cc2N(Cc2ccc(Cl)cc2)C1=O (stereo partly drawn)
Prompt line: rank_up(items): orders items by reported pEC50 in ascending numerical order. List the labels, following the order given in the request.
Response line: P, R, T, Q, S

---

As an illustration, consider measured EC50 for compounds on primary human T-cells.
assay endpoint: EC50 (nM)

The examples below pair each entry with its known result.
| compound | EC50, nM |
| --- | --- |
| N[C@H]1CS(=O)(=O)c2cc(F)c(-c3nnc(CC4CCOCC4)o3)cc2N(Cc2ccc(Cl)cc2)C1=O [Example 78] | 2350 |
| CC(C)(C)c1nnc(-c2cc3c(cc2F)S(=O)(=O)C[C@H](N)C(=O)N3Cc2ccc(OCC(N)=O)cc2)o1 [Example 236] | 3230 |
| N[C@H]1CS(=O)(=O)c2cc(F)c(-c3noc(C4(C(F)(F)F)CC4)n3)cc2N(Cc2ccc(Cl)cc2)C1=O [Example 318] | 550 |
| CC(C)(C)c1nnc(-c2cc3c(cc2Br)S(=O)(=O)C[C@H](N)C(=O)N3Cc2ccc(Cl)cc2)o1 [Example 271] | 4810 |

(I) Cc1nnc(-c2nnc(-c3cc4c(cc3F)S(=O)(=O)C[C@H](N)C(=O)N4Cc3ccc(OC(F)(F)F)cc3)o2)o1 [Example 60]
(II) CC(C)(C)c1nnc(-c2cc3c(cc2F)[S+]([O-])C[C@H](N)C(=O)N3Cc2ccc(Cl)cc2)o1 (stereo partly drawn) [Example 186]
Prompt line: I need your help: which of the pair I , II has higher EC50? Pick one; state its label.
Response line: I
(I: 535 nM, II: 158 nM)

(P) CS(=O)(=O)N1CC(c2nnc(-c3cc4c(cc3F)S(=O)(=O)C[C@H](N)C(=O)N4Cc3ccc(Cl)cc3)o2)C2(CC2)C1 (stereo partly drawn) [Example 176]
(Q) CC(C)Oc1ccc(CN2C(=O)[C@@H](N)CS(=O)(=O)c3cc(F)c(-c4noc(C5CN(C)CC(F)(F)C5)n4)cc32)nc1 (stereo partly drawn) [Example 346]
Prompt line: I need your help: which of the pair P , Q has higher EC50? Pick one; state its label.
Response line: Q

(I) CN1CC(c2nc(-c3cc4c(cc3F)S(=O)(=O)C[C@H](N)C(=O)N4Cc3ccc(Cl)cc3)no2)CC(C)(C)C1 (stereo partly drawn) [Example 324]
(II) CS(=O)(=O)N1CC(c2nnc(-c3cc4c(cc3F)S(=O)(=O)C[C@H](N)C(=O)N4Cc3ccc(Cl)cc3)o2)CC(F)(F)C1 (stereo partly drawn) [Example 164]
Prompt line: Select the item whose EC50 value is smaller, choosing between I and II . Pick one; state its label.
Response line: II

---

Recorded Emax values for a group of molecules are listed next.
Tested on: primary human T-cells
Assay: Proliferation assay after 5 days (CellTiter-Glo, CD3 stimulation; PBS counter screen)
Format: cell-based
Details: Homo sapiens, T-cell, 120 h, CD3 stimulation, 5 days; normalized to reference compound A1 as stimulator control = 100%, DMSO neutral control; read-out: Emax proliferation (% activation)
I only need the number, in %, no unit after it.

The examples below pair each entry with its known result.
| molecule | unit name | test value |
| --- | --- | --- |
| N[C@H]1CS(=O)(=O)c2cc(F)c(-c3nc(C4CC4)no3)cc2N(Cc2ccc(Cl)cc2)C1=O | % | 34 |
| Cc1c(F)c(-c2nnc(C(C)(C)C)o2)cc2c1S(=O)(=O)C[C@H](N)C(=O)N2Cc1ccc(Cl)cc1 | % | 80 |
| CC(C)(C)c1nnc(-c2cc3c(cc2F)S(=O)(=O)C[C@H](N)C(=O)N3Cc2cnc(C3CC3)nc2)o1 | % | 102 |
| CC(C)(C)c1nnc(-c2cc3c(cc2F)S(=O)(=O)C[C@H](N)C(=O)N3Cc2ccc(OC(F)(F)C(F)F)cc2)o1 | % | 127 |
| CC(C)(CO)c1nc(-c2cc3c(cc2F)S(=O)(=O)C[C@H](N)C(=O)N3Cc2ccc(Cl)cc2)no1 | % | 140 |
| CC(C)(C)c1nnc(-c2ccc3c(c2)N(Cc2ccc(OCC4CC4)cc2)C(=O)[C@@H](N)CS3(=O)=O)o1 | % | 110 |

Prompt line: Tell me its Emax given CC(C)(C)c1nnc(-c2cc3c(cc2F)S(=O)(=O)C[C@H](N)C(=O)N3Cc2ccc(Cl)nn2)o1 as the entry.
Response line: 66

Prompt line: Tell me its Emax given N[C@H]1CS(=O)(=O)c2cc(F)c(-c3nnc(NC4CCCCC4)o3)cc2N(Cc2ccc(Cl)cc2)C1=O as the entry.
Response line: 103

Prompt line: Tell me its Emax given N[C@H]1CS(=O)(=O)c2cc(F)c(-c3nnc(C4CCC(F)(F)CC4)o3)cc2N(Cc2ccc(Cl)cc2)C1=O as the entry.
Response line: 194

Prompt line: Tell me its Emax given CCn1cc(-c2cc3c(cc2F)S(=O)(=O)C[C@H](N)C(=O)N3Cc2ccc(Cl)cc2)cn1 as the entry.
Response line: 90

Prompt line: Tell me its Emax given CC(C)OC(=O)N1CC2CC(c3nc(-c4cc5c(cc4F)S(=O)(=O)C[C@H](N)C(=O)N5Cc4ccc(Cl)cc4)no3)(C2)C1 as the entry.
Response line: 112

---

System: primary human T-cells
Test: Proliferation assay after 5 days (CellTiter-Glo, CD3 stimulation; PBS counter screen)
Type: cell-based
Details: Homo sapiens, T-cell, 120 h, CD3 stimulation, 5 days; normalized to reference compound A1 as stimulator control = 100%, DMSO neutral control; read-out: Emax proliferation (% activation)
Recorded Emax values for a group of compounds are listed next.
I only need the number, in %, no unit after it.

The examples below pair each entry with its known result.
| compound | assay endpoint | test value |
| --- | --- | --- |
| CC(C)(C#N)c1nnc(-c2cc3c(cc2F)S(=O)(=O)C[C@H](N)C(=O)N3Cc2ccc(Cl)cc2)o1 | Emax | 112 |
| N[C@H]1CS(=O)(=O)c2ccc(-c3nnc(C(F)(F)C(F)(F)F)o3)cc2N(Cc2ccc(Cl)cc2)C1=O | Emax | 50 |
| N[C@H]1CS(=O)(=O)c2cc(F)c(-c3nnc(CC4CCOCC4)o3)cc2N(Cc2ccc(Cl)cc2)C1=O | Emax | 86 |

Prompt line: Tell me its Emax given N[C@H]1CS(=O)(=O)c2cc(F)c(-c3nnc(C4(C(F)(F)F)CC4)o3)cc2N(Cc2ccc(Cl)cc2)C1=O as the entry.
Response line: 135

Prompt line: Tell me its Emax given CC(=O)N1CC(c2nnc(-c3cc4c(cc3F)S(=O)(=O)C[C@H](N)C(=O)N4Cc3ccc(Cl)cc3)o2)C2(CC2)C1 (stereo partly drawn) as the entry.
Response line: 62

Prompt line: Tell me its Emax given CC(C)(CNC1COC1)c1nnc(-c2cc3c(cc2F)S(=O)(=O)C[C@H](N)C(=O)N3Cc2ccc(Cl)cc2)o1 as the entry.
Response line: 135

---

Test system: primary human T-cells
Assay: Proliferation assay after 5 days (CellTiter-Glo, CD3 stimulation; PBS counter screen)
Assay type: cell-based
Details: Homo sapiens, T-cell, 120 h, CD3 stimulation, 5 days; normalized to reference compound A1 as stimulator control = 100%, DMSO neutral control; read-out: Emax proliferation (% activation)
Recorded Emax values for a group of molecules are listed next.
I only need the number, in %, no unit after it.

| molecule | study target | unit name | Emax |
| --- | --- | --- | --- |
| Cc1nc(-c2nnc(-c3cc4c(cc3F)S(=O)(=O)C[C@H](N)C(=O)N4Cc3ccc(Cl)cc3)o2)no1 | primary human T-cells | % | 86 |

Prompt line: Tell me its Emax given Cc1cccc(-c2nnc(-c3cc4c(cc3F)S(=O)(=O)C[C@H](N)C(=O)N4Cc3ccc(Cl)cc3)o2)c1 as the entry.
Response line: 134
